subject_of_test: Carbonic anhydrase 12 (Homo sapiens) (UniProt O43570)
Sequence (O43570 whole entry, the tested form may be a part): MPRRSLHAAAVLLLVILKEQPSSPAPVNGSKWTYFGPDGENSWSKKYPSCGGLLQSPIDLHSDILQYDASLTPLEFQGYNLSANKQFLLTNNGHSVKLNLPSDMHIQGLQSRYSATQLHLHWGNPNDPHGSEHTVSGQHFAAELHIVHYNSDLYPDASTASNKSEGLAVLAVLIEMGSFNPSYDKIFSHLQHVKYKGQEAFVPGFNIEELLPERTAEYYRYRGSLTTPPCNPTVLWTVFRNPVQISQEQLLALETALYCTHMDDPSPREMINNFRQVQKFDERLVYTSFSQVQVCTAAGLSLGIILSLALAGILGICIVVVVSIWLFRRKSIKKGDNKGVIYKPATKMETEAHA
experimental_protocol: Activation of human recombinant CA12 catalytic domain by stopped-flow CO2 hydration method
quantity_name: KA (µM)
Expressed in µM, but write only the number.

> print(dat)
                     input.smiles  quantity.name  quantitative.result
1  N[C@@H](Cc1ccc(O)c(O)c1)C(=O)O             KA                 1.67
2          NCCc1c[nH]c2ccc(O)cc12             KA                  0.3
3                     NCCN1CCOCC1             KA                 0.24

response.value for NCCc1c[nH]cn1 (field: KA) = 27.9
